The measurements presented in this section are drawn from the array DNA melting data of Ke et al. (doi:10.1101/2024.01.08.574731).

- Protocol: folding enthalpy; higher = less favourable; fluorescence melt of hairpins on a sequencing array, two-state fit
- Condition Parameters: sodium 0.088 M
Give folding enthalpy for every item shown.
Please reply with the bare figure in kcal/mol and do not write the unit itself.

Query: Provide one value: measured folding enthalpy of GCTTGCGGAAACGTGAGC (((..((....))..)))
Result: -31.5

Query: Provide one value: measured folding enthalpy of GATCAAAAGGTTGATC ((((((....))))))
Result: -23.9

Query: Provide one value: measured folding enthalpy of GGGGAAACGAAAGTTCCC (((..(((....))))))
Result: -22.1

Query: Provide one value: measured folding enthalpy of GATCTTACGCAAGATC ((((((....))))))
Result: -31.1

Query: Provide one value: measured folding enthalpy of GCATTACGAAAGTAGTGC (((.(((....))).)))
Result: -31.7

Query: Provide one value: measured folding enthalpy of GACTACGGAAACGTAGTC (((((((....)))))))
Result: -37.8

====

- Protocol: folding enthalpy; higher = less favourable; fluorescence melt of hairpins on a sequencing array, two-state fit
- Condition Parameters: sodium 0.088 M
Binning scheme for folding enthalpy: interval 1 (below -30 kcal/mol), interval 2 (-30 kcal/mol to below -20 kcal/mol), interval 3 (-20 kcal/mol or more)

Query: Categorize the following entry: GTCGGCGAAAGCCCGGAC ((((((....)))..)))
Result: interval 3

Query: Categorize the following entry: GGTTTGCGAAAGCACACC (((.(((....))).)))
Result: interval 2

Query: Categorize the following entry: GTTAGGGGAAACCTTAAC ((((.((....)).))))
Result: interval 2

Query: Categorize the following entry: GATCTATTTATAGATC ((((((....))))))
Result: interval 1

Query: Categorize the following entry: GGTTACCCGAAAGGGACC (((..(((....))))))
Result: interval 3

Query: Categorize the following entry: GCTCTTACGAAAGTAAGC (((..(((....))))))
Result: interval 3

Query: Categorize the following entry: GGCCCTGGAAACAGGGTC (.(((((....))))).)
Result: interval 1

Query: Categorize the following entry: GATCGGGGGCCCGATC ((((((....))))))
Result: interval 1

Query: Categorize the following entry: GATCATGACCATGATC ((((((....))))))
Result: interval 1

Query: Categorize the following entry: GATCCAAGGTTGGATC ((((((....))))))
Result: interval 1

Query: Categorize the following entry: GCGGACGGAAACGTCTGC ((.((((....)))).))
Result: interval 1

Query: Categorize the following entry: GGATGGTCGAAAGACTCC (((..(((....))))))
Result: interval 3

Query: Categorize the following entry: CACAGGAAACTGTG (((((....)))))
Result: interval 2

Query: Categorize the following entry: GCTGGTGGAAACGCCAGC (((((.(....).)))))
Result: interval 1

Query: Categorize the following entry: GCATCCGAAAGGATATGC ((((((....)))..)))
Result: interval 3

Query: Categorize the following entry: GACGATACGAAAGTAGTC (((..(((....))))))
Result: interval 3

Query: Categorize the following entry: GATACTGGAAACAGTATC (((((((....)))))))
Result: interval 1

Query: Categorize the following entry: GGACCGCGAAAGCGTCC (((.(((....))))))
Result: interval 3

Query: Categorize the following entry: GTGCCCGGAAACGGACAC (((.(((....))).)))
Result: interval 1

Query: Categorize the following entry: GCGAAGAATCGC ((((....))))
Result: interval 3

Query: Categorize the following entry: GTCTTCGAAAGAACGAC ((((((....))).)))
Result: interval 2

Query: Categorize the following entry: GCTATTGAAAAATAGC ((((((....))))))
Result: interval 1

Query: Categorize the following entry: GGTCAAGCGAAAGCTACC (((..(((....))))))
Result: interval 3

Query: Categorize the following entry: GGGCGAGGAAACTCGTCC ((.((((....)))).))
Result: interval 1

Query: Categorize the following entry: GTTGACGAAAGTCTCAAC ((((((....)))..)))
Result: interval 3

Query: Categorize the following entry: GACCCGGGAAACCAGGCC (.((.((....)).)).)
Result: interval 3

Query: Categorize the following entry: GCATGGGGAAACTCGTGC (((.(.(....).).)))
Result: interval 2

Query: Categorize the following entry: GATACCGAAAGGTACATC ((((((....)))..)))
Result: interval 3

Query: Categorize the following entry: GAACAGGGAAACCTGTCC (.(((((....))))).)
Result: interval 3

Query: Categorize the following entry: GGAGATGGAAACATCTTC (.(((((....))))).)
Result: interval 2

Query: Categorize the following entry: GCGATGCGAAAGCAATGC ((..(((....)))..))
Result: interval 3

Query: Categorize the following entry: GTCCGCGGAAACGTGGAC ((((.((....)).))))
Result: interval 1

Query: Categorize the following entry: GATCGCAAATGCGATC ((((((....))))))
Result: interval 1

Query: Categorize the following entry: GCATCCGAAAGGACCTGC ((((((....)))..)))
Result: interval 3

Query: Categorize the following entry: GTACGTCGAAAGACTAC (((.(((....))))))
Result: interval 2

Query: Categorize the following entry: GCCCTGCGAAAGCAAGGC (((.(((....))).)))
Result: interval 1

Query: Categorize the following entry: GCTTTGCGAAAGCCTAGC (((..((....))..)))
Result: interval 3

Query: Categorize the following entry: GACCCGGGAAACCAGGTC ((((.((....)).))))
Result: interval 2

Query: Categorize the following entry: GACGCTGGAAACGGTGTC (((.(.(....).).)))
Result: interval 2

Query: Categorize the following entry: GGCCCACGAAAGTGCGCC (((.(((....))).)))
Result: interval 1

Query: Categorize the following entry: GATCCAGCCATGGATC ((((((....))))))
Result: interval 1

Query: Categorize the following entry: GGCCTCGAAAGAGGTGCC ((((((....)))..)))
Result: interval 3

Query: Categorize the following entry: GCATTCGAAAGAAAATGC ((((((....)))..)))
Result: interval 2

Query: Categorize the following entry: GCCGGGCGAAAGCTCAGC ((.(.((....)).).))
Result: interval 3

Query: Categorize the following entry: GGGACCGAAAGGTAGCCC ((((((....)))..)))
Result: interval 3
